test system: Pichia kudriavzevii; assay: Antimicrobial activity against Candida krusei after 72 hrs by broth microdilution method; type: functional
measurement_kind: MFC (mg/L)

structure_as_smiles: CCOC(=O)c1cc(-c2ccc(Cl)cc2)[nH]c1NNC(C)=O
assay_system: Pichia kudriavzevii
reported_relation: =
measured_value: 50

structure_as_smiles: CCOC(=O)c1cc(-c2ccc(OC)cc2)[nH]c1NNC(=O)CCOC
assay_system: Pichia kudriavzevii
reported_relation: =
measured_value: 100

structure_as_smiles: COCC(=O)NNc1[nH]c(-c2ccc(OC)cc2)cc1C#N
assay_system: Pichia kudriavzevii
reported_relation: =
measured_value: 12.5

structure_as_smiles: COCCC(=O)NNc1[nH]c(-c2ccccc2)cc1C#N
assay_system: Pichia kudriavzevii
reported_relation: =
measured_value: 12.5

structure_as_smiles: CCOC(=O)c1cc(-c2ccccc2)[nH]c1NNC(=O)Cc1ccc(OC)cc1
assay_system: Pichia kudriavzevii
reported_relation: >
measured_value: 100

structure_as_smiles: COc1ccc(-c2cc(C#N)c(NNC(C)=O)[nH]2)cc1
assay_system: Pichia kudriavzevii
reported_relation: =
measured_value: 3.12

structure_as_smiles: COCCC(=O)NNc1[nH]c(-c2ccccc2)cc1C(=O)OC
assay_system: Pichia kudriavzevii
reported_relation: =
measured_value: 25

structure_as_smiles: CCOC(=O)c1cc(-c2ccccc2)[nH]c1NNC(=O)C(C)C
assay_system: Pichia kudriavzevii
reported_relation: >
measured_value: 100

structure_as_smiles: CCOC(=O)c1cc(-c2ccccc2)[nH]c1NNC(C)=O
assay_system: Pichia kudriavzevii
reported_relation: =
measured_value: 50

structure_as_smiles: CCCC(=O)NNc1[nH]c(-c2ccccc2)cc1C(=O)OCC
assay_system: Pichia kudriavzevii
reported_relation: >
measured_value: 100

structure_as_smiles: CCOC(=O)NNc1[nH]c(-c2ccc(OC)cc2)cc1C#N
assay_system: Pichia kudriavzevii
reported_relation: =
measured_value: 50

structure_as_smiles: CCOC(=O)NNc1[nH]c(-c2ccc(C)cc2)cc1C(=O)OCC
assay_system: Pichia kudriavzevii
reported_relation: >
measured_value: 100

---

tested on: Candida parapsilosis; experiment: Antimicrobial activity against Candida parapsilosis after 72 hrs by broth microdilution method; assay type: functional; conditions: Lodderomyces parapsilosis

structure_as_smiles: CCOC(=O)c1cc(-c2ccc(Cl)cc2)[nH]c1NNC(=O)Cc1ccc(OC)cc1
reported_relation: >
MFC [µg/mL]: 100
--
structure_as_smiles: CCOC(=O)NNc1[nH]c(-c2ccc(C)cc2)cc1C(=O)OCC
reported_relation: >
MFC [µg/mL]: 100
--
structure_as_smiles: COCCC(=O)NNc1[nH]c(-c2ccccc2)cc1C#N
reported_relation: =
MFC [µg/mL]: 25
--
structure_as_smiles: CCOC(=O)NNc1[nH]c(-c2ccc(OC)cc2)cc1C(=O)OC
reported_relation: >
MFC [µg/mL]: 100
--
structure_as_smiles: CCOC(=O)c1cc(-c2ccc(OC)cc2)[nH]c1NNC(C)=O
reported_relation: =
MFC [µg/mL]: 50
--
structure_as_smiles: COC(=O)c1cc(-c2ccc(OC)cc2)[nH]c1NNC(C)=O
reported_relation: =
MFC [µg/mL]: 6.25
--
structure_as_smiles: CCOC(=O)c1cc(-c2ccc(OC)cc2)[nH]c1NNC(=O)C(C)C
reported_relation: >
MFC [µg/mL]: 100
--
structure_as_smiles: COCC(=O)NNc1[nH]c(-c2ccc(OC)cc2)cc1C#N
reported_relation: =
MFC [µg/mL]: 12.5
--
structure_as_smiles: CCOC(=O)c1cc(-c2ccc(C)cc2)[nH]c1NNC(=O)Cc1ccc(OC)cc1
reported_relation: >
MFC [µg/mL]: 100
--
structure_as_smiles: CC(=O)NNc1[nH]c(-c2ccccc2)cc1C#N
reported_relation: =
MFC [µg/mL]: 12.5
--
structure_as_smiles: CCOC(=O)c1cc(-c2ccc(C)cc2)[nH]c1NNC(C)=O
reported_relation: =
MFC [µg/mL]: 50
